Item-by-item account of Max MFI
# tested on: T1, human GPC3 on CHO-K1-human GPC3 cells (clone CHOK1-hGPC3.2B5) (human, UniProt P51654 25-554)
# T1 construct: whole, on cells; Stably transfected CHO-K1 clone 2B5
# assay explanation: FACS on CHOK1-hGPC3.2B5 cells;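 note: flow cytometry binding of chimeric antibodies to the cells, read out as mean fluorescence intensity, with the half-maximal concentration derived by curve fitting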
Give the value, in units of MFI, as a plain number.

F1.118.4 human-murine chimeric antibody (antibody, human IgG1, kappa, V domains shown) VH: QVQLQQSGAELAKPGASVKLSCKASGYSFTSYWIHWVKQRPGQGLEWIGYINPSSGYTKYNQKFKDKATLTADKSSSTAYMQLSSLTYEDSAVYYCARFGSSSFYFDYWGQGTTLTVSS VL: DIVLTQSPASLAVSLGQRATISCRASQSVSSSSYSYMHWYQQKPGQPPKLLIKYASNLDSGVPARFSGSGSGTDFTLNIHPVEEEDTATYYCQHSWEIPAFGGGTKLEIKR	9640
F3.81.19 human-murine chimeric antibody (antibody, human IgG1, kappa, V domains shown) VH: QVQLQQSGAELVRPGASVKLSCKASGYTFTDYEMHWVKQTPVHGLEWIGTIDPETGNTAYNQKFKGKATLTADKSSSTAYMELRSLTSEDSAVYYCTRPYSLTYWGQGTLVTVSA VL: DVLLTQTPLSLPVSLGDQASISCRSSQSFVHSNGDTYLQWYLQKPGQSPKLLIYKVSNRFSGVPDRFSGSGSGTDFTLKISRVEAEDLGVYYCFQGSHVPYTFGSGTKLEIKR	14100

INPUT: GET /values?readout=Max MFI&item= F1.57.21 human-murine chimeric antibody (antibody, human IgG1, kappa, V domains shown) VH: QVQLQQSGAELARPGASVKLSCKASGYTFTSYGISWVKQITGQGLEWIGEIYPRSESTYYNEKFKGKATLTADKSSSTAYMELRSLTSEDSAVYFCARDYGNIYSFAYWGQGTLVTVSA VL: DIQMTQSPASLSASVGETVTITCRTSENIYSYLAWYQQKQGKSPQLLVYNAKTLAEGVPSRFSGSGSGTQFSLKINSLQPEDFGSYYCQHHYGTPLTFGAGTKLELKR
OUTPUT: 9360
